system: Caco-2; assay: Ratio of permeability from basolateral to apical over apical to basolateral side of the Caco-2 cell membrane in presence of 20 uM cyclosporin A; type: ADME, cell-based; details: human
recorded metric: Ratio

1 = CC(C)C[C@@H]1NC(=O)[C@H](Cc2ccccc2)NC(=O)CNC(=O)[C@H](C)NC(=O)[C@H](Cc2ccc(O)cc2)NC(=O)/C=C\c2ccccc2OCOC1=O
2 = CC(C)C[C@H]1NC(=O)[C@H](Cc2ccccc2)NC(=O)CNC(=O)[C@H](C)NC(=O)[C@H](Cc2ccc(O)cc2)NC(=O)/C=C\c2ccccc2OCOC1=O
3 = CC(=O)N[C@@H](Cc1ccc(O)cc1)C(=O)N[C@H](C)C(=O)NCC(=O)N[C@@H](Cc1ccccc1)C(=O)N[C@@H](CC(C)C)C(N)=O
## Task Reorder the records above by Ratio so that values decrease. Quick reminder: the answer is the labels in the order asked.
## Result 1, 2, 3
(1: 12, 2: 6.1, 3: 2.4)
